# subject.of.test: Apoptotic protease-activating factor 1 (Homo sapiens)
# test.description: Apaf-1 activators, single-dose retest, confirmation, biochemical, fluorescence, DEVD-Rh110, 20 µM (AID 504617)
# run.conditions: reconstituted apoptosome caspase-3 activity, at 20 µM, hits give low values
This is one part of the list.
activity change, negative = activation: recorded values
Report the value in % with no unit label.

Here are 8 compounds together with their reported answers.
compound: O=C(CN1C(=O)C2C3C=CC(C3)C2C1=O)NCCc1ccccc1Cl (stereo unspecified)
unit.label: %
activity change, negative = activation: 10.8
//
compound: C=CCNC(=O)c1ccc(C)c(Br)c1
unit.label: %
activity change, negative = activation: 5.25
//
compound: O=C(CCc1ccccc1)NNC(=O)c1ccc(Br)cc1
unit.label: %
activity change, negative = activation: 5.47
//
compound: Cc1ccc(S(=O)(=O)c2c(N)n(C)c3nc4ccccc4nc23)cc1
unit.label: %
activity change, negative = activation: 18.5
//
compound: Clc1cccc(-c2nc3nc4ccccc4nc3n2Cc2ccco2)c1
unit.label: %
activity change, negative = activation: 21.3
//
compound: COC(CNC(=O)Cn1ncc2ccsc2c1=O)OC
unit.label: %
activity change, negative = activation: 10.8
//
compound: CC1COc2ccccc2N1C(=O)c1cccnc1Cl (stereo unspecified)
unit.label: %
activity change, negative = activation: 6.25
//
compound: Cc1cc(NC(=O)c2cccc(N3C(=O)CCC3=O)c2)no1
unit.label: %
activity change, negative = activation: 4.77

What measured activity change, negative = activation goes with O=C(Nc1cccc(-c2nc3ccccc3[nH]2)c1)c1ccc(C(=O)Nc2cccc(-c3nc4ccccc4[nH]3)c2)cc1 ? -23.1

---

# subject.of.test: Apoptotic protease-activating factor 1 (Homo sapiens) (UniProt O14727)
# Sequence (O14727 whole entry, looked up): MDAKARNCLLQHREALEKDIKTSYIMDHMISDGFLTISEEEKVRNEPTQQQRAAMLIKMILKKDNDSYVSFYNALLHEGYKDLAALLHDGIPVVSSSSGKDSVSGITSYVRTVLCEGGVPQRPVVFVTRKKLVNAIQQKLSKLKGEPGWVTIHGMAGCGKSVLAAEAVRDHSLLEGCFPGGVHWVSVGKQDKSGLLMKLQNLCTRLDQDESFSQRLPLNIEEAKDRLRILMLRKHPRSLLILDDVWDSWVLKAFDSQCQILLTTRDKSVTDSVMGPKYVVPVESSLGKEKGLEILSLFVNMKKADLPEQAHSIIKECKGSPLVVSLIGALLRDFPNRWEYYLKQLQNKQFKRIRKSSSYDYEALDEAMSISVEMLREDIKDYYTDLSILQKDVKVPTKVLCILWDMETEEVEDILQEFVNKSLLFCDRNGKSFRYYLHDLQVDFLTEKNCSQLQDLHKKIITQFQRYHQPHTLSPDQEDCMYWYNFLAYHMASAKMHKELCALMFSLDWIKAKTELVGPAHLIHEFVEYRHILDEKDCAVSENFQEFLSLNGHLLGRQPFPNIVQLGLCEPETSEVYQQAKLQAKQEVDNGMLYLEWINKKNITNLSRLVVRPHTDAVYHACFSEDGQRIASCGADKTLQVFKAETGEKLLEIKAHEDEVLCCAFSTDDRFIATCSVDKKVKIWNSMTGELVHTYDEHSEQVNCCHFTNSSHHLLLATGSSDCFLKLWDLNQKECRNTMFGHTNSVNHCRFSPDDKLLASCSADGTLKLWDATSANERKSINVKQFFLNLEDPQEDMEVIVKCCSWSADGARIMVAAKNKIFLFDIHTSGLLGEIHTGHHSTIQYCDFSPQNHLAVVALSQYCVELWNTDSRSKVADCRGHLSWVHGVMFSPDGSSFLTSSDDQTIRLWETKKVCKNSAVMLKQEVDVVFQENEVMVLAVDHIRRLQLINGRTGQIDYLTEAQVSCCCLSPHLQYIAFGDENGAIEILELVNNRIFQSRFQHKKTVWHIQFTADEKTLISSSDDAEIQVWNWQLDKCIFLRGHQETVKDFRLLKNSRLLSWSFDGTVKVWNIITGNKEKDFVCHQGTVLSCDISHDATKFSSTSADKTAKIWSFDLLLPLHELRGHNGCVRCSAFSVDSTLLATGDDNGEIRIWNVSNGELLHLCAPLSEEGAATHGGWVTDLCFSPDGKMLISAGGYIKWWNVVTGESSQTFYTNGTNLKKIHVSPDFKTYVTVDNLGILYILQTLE
# test.description: Apaf-1 activators, single-dose retest, confirmation, biochemical, fluorescence, DEVD-Rh110, 20 µM (AID 504617)
# run.conditions: reconstituted apoptosome caspase-3 activity, at 20 µM, hits give low values
This is one part of the list.
experimental.readout: activity change, negative = activation (%)
Use % as the unit, but write only the number.

molecule: CCCC(=O)Nc1nc2ccc(NC(=O)c3c(F)c(F)c(OC)c(F)c3F)cc2s1
activity change, negative = activation (%): 9.11
--
molecule: Cc1ccc(S(=O)(=O)N2CCOCC2)cc1C(=O)NC(=S)N(Cc1ccccc1)C(C)C
activity change, negative = activation (%): 16.4
--
molecule: O=C(CSc1ccc(-c2ccc(-n3cccn3)cc2)nn1)Nc1ccc([N+](=O)[O-])cc1
activity change, negative = activation (%): 8.16
--
molecule: O=c1[nH]cnc2c1c(-c1ccccc1)cn2-c1ccc(F)cc1
activity change, negative = activation (%): 10.9

What activity change, negative = activation value was documented for this molecule, Brc1ccc(/C=N/N2CCN(C3c4ccccc4-c4ccccc43)CC2)s1 ? 4.14

For the molecule shown here, CN(C)S(=O)(=O)c1ccc(C(=O)NCCN=C2NS(=O)(=O)c3ccccc32)cc1 , give the reported activity change, negative = activation. 4.07

I am curious: what activity change, negative = activation value has been reported for O=[N+]([O-])c1ccc2nc(-c3ccccn3)[nH]c2c1 ? 9.21

Consider the molecule COc1cccc(C(=O)Nc2ccc(N3CCCC3)cc2)c1 and give its measured activity change, negative = activation. 7.29

Give its activity change, negative = activation value. Item: N#CC1(C#N)C(C(=O)C23CC4CC(CC(C4)C2)C3)C12CCOCC2 (configuration not stated) 6.87

Given CC(=O)NC(=S)NNC(=O)c1ccc(Br)cc1 , state its recorded activity change, negative = activation. 17.7

Recorded activity change, negative = activation for COc1cc(C(=O)NCc2nnc(SCC(=O)Nc3nc4ccc(C)cc4s3)o2)cc(OC)c1OC , please? 8.22

# activity change, negative = activation lookup, item C=CC1=C(C(=O)O)N2C(=O)[C@@H](NC(=O)/C(=N/OCC(=O)O)c3csc(N)n3)[C@H]2SC1 -113

Record request: activity change, negative = activation value, item Cc1ccc(Nc2nc(CSc3nnc(-c4ccncc4)n3-c3ccccc3C)cs2)cc1 26.5

Any idea what activity change, negative = activation was measured for O=C(Nc1ccccc1F)c1ccccc1-c1ccccc1 ? 4.47

# query: activity change, negative = activation of entry COc1ccc(OCCCC(=O)NCCc2ccccc2)cc1 4.66

Endpoint output: activity change, negative = activation of CC(C)OCCCNC(=S)N1CCC(C(=O)c2ccc3c(c2)OCCO3)CC1 . Value? 17.5

What value of activity change, negative = activation has been recorded for this entry: Cc1nn(CC(=O)Nc2ccc(C#N)cc2)c(C)c1[N+](=O)[O-] -10.5
